Cited source for all entries: patent US20140072563A1

target: hErbB3.mmh (soluble monomeric human ErbB3 extracellular domain with C-terminal myc-myc-hexahistidine tag) (human, UniProt P21860 20-642); assay: SPR (Biacore), 25 C, mAb capture format
Sequence (P21860 other isoform, or with tags, fused parts or gaps): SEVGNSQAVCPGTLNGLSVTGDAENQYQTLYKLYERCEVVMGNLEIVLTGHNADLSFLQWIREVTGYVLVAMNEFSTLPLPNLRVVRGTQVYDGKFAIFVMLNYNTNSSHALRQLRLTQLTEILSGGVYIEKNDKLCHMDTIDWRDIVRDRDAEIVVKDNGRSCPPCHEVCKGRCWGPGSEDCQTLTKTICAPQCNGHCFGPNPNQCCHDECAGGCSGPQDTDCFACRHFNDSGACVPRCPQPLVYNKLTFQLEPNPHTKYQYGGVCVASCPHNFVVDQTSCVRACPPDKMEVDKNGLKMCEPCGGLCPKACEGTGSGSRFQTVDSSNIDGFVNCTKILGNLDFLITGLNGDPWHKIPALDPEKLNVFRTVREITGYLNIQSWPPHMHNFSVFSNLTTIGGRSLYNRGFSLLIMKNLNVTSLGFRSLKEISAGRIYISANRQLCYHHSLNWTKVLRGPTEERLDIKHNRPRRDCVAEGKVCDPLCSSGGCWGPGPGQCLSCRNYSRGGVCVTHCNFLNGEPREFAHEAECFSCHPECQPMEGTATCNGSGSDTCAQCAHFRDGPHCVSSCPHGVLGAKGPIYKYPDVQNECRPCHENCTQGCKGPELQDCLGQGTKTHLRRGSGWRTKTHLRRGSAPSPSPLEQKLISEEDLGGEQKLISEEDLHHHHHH
Reported values of T½ for individual entries
observable: T½ (h)

[
  {
    "binder": "H2M1934N (antibody, V domains shown, Hybridoma chimeric antibody: human variable domains, mouse IgG2 Fc (H2M prefix)) VH: EVQLVQSGGGLVKPGGSLRLSCAASGFTFSNFNMNWVRQAPGKGLEWVSFISSLSTYTYYADSVKGRFTISRDNAKNSLYLQMNSLRAEDTAVYYCARDDGDHDWFDPWGQGTLVTVSS VL: EIVLTQSPDTLSLSPGERATLSCRASQSVSSNYLAWYQQKPGQAPRLLIYSASNRATGIPDRFSGSGSGTDFTLTISRLEPEDFAVYYCQQYDSSYTFGQGTKLEIK",
    "observable": "T½",
    "unitOfMeasure": "h",
    "endpointResult": 2.62
  },
  {
    "binder": "H2M1937N (antibody, V domains shown, Hybridoma chimeric antibody: human variable domains, mouse IgG2 Fc (H2M prefix)) VH: QVQLQQWDAGLLKPSETLSLTCAVYGGSFSSYYWSWIRQPPGKGLEWIGEINHRGSTNYNPSLKSRVTISVDTSKNQFSLKLRSVTAADTAVYYCARGGVAARPDWHFFDYWGQGTLVTVSS VL: DIQMTQSPSSLSASVGDRVTITCRASQVIRNDLGWFQQRPGKAPKRLIYAASSLQSEVPSRFSGSGSGTEFTLTITSLQPEDFATYYCLQHNSYPLTFGQGTRLEIK",
    "observable": "T½",
    "unitOfMeasure": "h",
    "endpointResult": 3.42
  },
  {
    "binder": "H2M1829N (antibody, V domains shown, Hybridoma chimeric antibody: human variable domains, mouse IgG2 Fc (H2M prefix)) VH: EVQLVESGGGVVRPGGSLRLSCVASGFTFDDYGMSWVRQAPGKGLECVSGINWNGGSTDYADSVKGRFTISRDNAKNSLYLQMNSLRAEDTALYHCARDGGDWDYFDLWGRGTLVTVSS VL: EILMTQSPATLSVSPGERATLSCRASQSVSSNLAWYQQKPGQAPRLLIYGASTRATGIPARFSGSGSGTEFTLTISSLQSEDFAIYYCQEYNDWPLTFGGGTKVEIK",
    "observable": "T½",
    "unitOfMeasure": "h",
    "endpointResult": 2.98
  }
]
